Target: recombinant rat PAI-1 (Rattus norvegicus, UniProt P20961)
Sequence (P20961 24-402): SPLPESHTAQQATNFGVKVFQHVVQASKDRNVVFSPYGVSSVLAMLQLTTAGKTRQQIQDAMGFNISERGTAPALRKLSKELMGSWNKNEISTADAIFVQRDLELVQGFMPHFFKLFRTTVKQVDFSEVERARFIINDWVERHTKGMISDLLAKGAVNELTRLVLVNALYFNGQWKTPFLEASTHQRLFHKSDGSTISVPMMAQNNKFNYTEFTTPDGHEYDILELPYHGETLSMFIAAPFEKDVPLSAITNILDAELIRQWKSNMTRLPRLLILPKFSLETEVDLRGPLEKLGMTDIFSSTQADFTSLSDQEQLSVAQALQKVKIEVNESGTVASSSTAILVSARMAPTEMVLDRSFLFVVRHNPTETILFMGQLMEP
Assay: biochemical
Conditions: read-out: Inhibition Rate of PAI-1 Activity (%)

| given smiles | inhibition at 3 µM, % |
| --- | --- |
| CC(C)(C)c1ccc(COc2c(CCC(=O)O)cccc2-c2ccc(OC(F)(F)F)cc2)cc1 | 51 |
| CC(C)(C)c1ccc(Oc2cc(-c3ccc(OC(F)(F)F)cc3)ccc2OCC(=O)O)cc1 | 75 |
| CCCCOc1ccc(-c2ccc(OC(F)(F)F)cc2)cc1N(CCCCc1ccccc1)C(=O)C(=O)O | 89 |
| CC(C)(C)c1ccc(CN(C(=O)C(=O)O)c2ccc(Cl)c(-c3ccc(OC(F)(F)F)cc3)c2)cc1 | 83 |

====

Target: recombinant human PAI-1 (Homo sapiens)
Assay: Test Example 2: Human PAI-1 Inhibitory Activity (pH 7.4 HEPES buffer, 10 minutes incubation with two-chain tPA)
Assay type: biochemical
Set-up: purchased Molecular Innovations, Inc
Details: read-out: Inhibition Rate of PAI-1 Activity (%)
Procedure: 0.1 M HEPES, 0.1 M NaCl. 1 mM EDTA. 0.1 % Polyethylene glycol 8,000 (Hampton Research Corporation), 2 mM Dimethyldecylphoshine oxide [Apo-10] (Fluka Corporation)

| given smiles | sign qualifier | inhibition at 25 µM [%] |
| --- | --- | --- |
| CC(C)(C)c1ccc(N(Cc2ccc(-c3ccccc3)cc2)C(=O)C(=O)O)cc1 | > | 99 |
| CC(C)(C)c1ccc(CN(C(=O)CC(=O)O)c2ccc(-c3ccc(OC(F)(F)F)cc3)cc2)cc1 | = | 95 |
| O=C(O)c1cc(-c2ccc(OC(F)(F)F)cc2)ccc1OCc1ccccc1 | = | 53 |

====

Biological target: recombinant human PAI-1 (Homo sapiens)
Assay: Test Example 2: Human PAI-1 Inhibitory Activity (pH 7.4 HEPES buffer, 10 minutes incubation with two-chain tPA)
Assay type: biochemical
Set-up: purchased Molecular Innovations, Inc
Conditions: read-out: Inhibition Rate of PAI-1 Activity (%)

| given smiles | inhibition at 1 µM |
| --- | --- |
| CC(C)(C)c1ccc(COc2ccc(-c3ccc(OC(F)(F)F)cc3)cc2CC(=O)O)cc1 | 25% |
| CCCCCOc1ccc(-c2ccc(OC(F)(F)F)cc2)cc1CN(C(=O)C(=O)O)c1ccc(C(C)(C)C)cc1 | 95% |
| CC(C)(C)c1ccc(Oc2cc(-c3cc(Cl)ccc3Cl)ccc2/C=C/C(=O)O)cc1 | 76% |
| COc1ccc(-c2ccc(OC(F)(F)F)cc2)cc1N(CCCCc1ccccc1)C(=O)C(=O)O | 15% |

====

inhibition at 0.1 µM reference
Target: recombinant human PAI-1 (Homo sapiens, UniProt P05121)
Sequence (P05121 24-402): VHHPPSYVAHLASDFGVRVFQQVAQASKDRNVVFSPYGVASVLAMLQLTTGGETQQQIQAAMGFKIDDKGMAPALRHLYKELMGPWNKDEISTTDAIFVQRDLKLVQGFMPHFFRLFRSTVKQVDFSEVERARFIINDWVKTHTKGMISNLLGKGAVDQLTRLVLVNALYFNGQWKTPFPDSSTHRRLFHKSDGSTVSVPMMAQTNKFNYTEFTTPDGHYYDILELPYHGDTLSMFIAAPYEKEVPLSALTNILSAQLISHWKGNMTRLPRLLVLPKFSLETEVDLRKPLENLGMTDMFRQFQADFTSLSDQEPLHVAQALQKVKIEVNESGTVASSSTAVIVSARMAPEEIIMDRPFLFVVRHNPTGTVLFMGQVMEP
Test: Test Example 2: Human PAI-1 Inhibitory Activity (pH 7.4 HEPES buffer, 10 minutes incubation with two-chain tPA)
Format: biochemical
Set-up: purchased Molecular Innovations, Inc
Details: read-out: Inhibition Rate of PAI-1 Activity (%)
Method: 0.1 M HEPES, 0.1 M NaCl. 1 mM EDTA. 0.1 % Polyethylene glycol 8,000 (Hampton Research Corporation), 2 mM Dimethyldecylphoshine oxide [Apo-10] (Fluka Corporation)

| compound | experimental target | inhibition at 0.1 µM / % |
| --- | --- | --- |
| CCCCC(Oc1cc(-c2ccc(OC(F)(F)F)cc2)ccc1OCc1ccc(C(C)(C)C)cc1)C(=O)O (stereo not drawn) | recombinant human PAI-1 (Homo sapiens, UniProt P05121) | 1 |
| CC(C)(C)c1ccc(CN(C(=O)C(=O)O)c2ccc(Cl)c(-c3ccc(OC(F)(F)F)cc3)c2)cc1 | recombinant human PAI-1 (Homo sapiens, UniProt P05121) | 0 |
| CCCCCOc1ccc(-c2ccc(C)cc2)cc1N(CCCCc1ccccc1)C(=O)C(=O)O | recombinant human PAI-1 (Homo sapiens, UniProt P05121) | 19 |
| O=C(O)CCc1ccc(-c2ccc(OC(F)(F)F)cc2)cc1Oc1ccc2ccccc2c1 | recombinant human PAI-1 (Homo sapiens, UniProt P05121) | 0 |
| Cc1cc(C)cc(-c2ccc(/C=C/C(=O)O)c(Oc3ccc(C(C)(C)C)cc3)c2)c1 | recombinant human PAI-1 (Homo sapiens, UniProt P05121) | 4 |
| CCCCCCCCCOc1cc(-c2ccc(OC(F)(F)F)cc2)ccc1N(CCCCc1ccccc1)C(=O)C(=O)O | recombinant human PAI-1 (Homo sapiens, UniProt P05121) | 76 |
| CCCCCN(C(=O)C(=O)O)c1cc(-c2ccc(OC(F)(F)F)cc2)ccc1OCCCCc1ccccc1 | recombinant human PAI-1 (Homo sapiens, UniProt P05121) | 0 |
| CC(C)(C)c1ccc(Oc2cc(-c3ccc(OC(F)(F)F)cc3)ccc2CC(=O)O)cc1 | recombinant human PAI-1 (Homo sapiens, UniProt P05121) | 0 |
| CN(C)c1ccc(N(Cc2ccc(C(C)(C)C)cc2)C(=O)C(=O)O)cc1-c1ccc(OC(F)(F)F)cc1 | recombinant human PAI-1 (Homo sapiens, UniProt P05121) | 4 |
| CC(C)(C)c1ccc(Oc2ccc(-c3ccc(OC(F)(F)F)cc3)cc2OCC(=O)O)cc1 | recombinant human PAI-1 (Homo sapiens, UniProt P05121) | 0 |
| CC(C)Oc1ccc(-c2ccc(OCC(=O)O)c(Oc3ccc(C(C)(C)C)cc3)c2)cc1 | recombinant human PAI-1 (Homo sapiens, UniProt P05121) | 1 |
| CCCCCCCCCOc1ccc(-c2ccc(OC(F)(F)F)cc2)cc1N(CCCCc1ccccc1)C(=O)C(=O)O | recombinant human PAI-1 (Homo sapiens, UniProt P05121) | 41 |
| CC(C)(C)c1ccc(Oc2cc(-c3ccc4ccccc4c3)ccc2/C=C/C(=O)O)cc1 | recombinant human PAI-1 (Homo sapiens, UniProt P05121) | 4 |
| CCCCCCCCCOc1cc(N(CCCCc2ccccc2)C(=O)C(=O)O)ccc1-c1ccc(OC(F)(F)F)cc1 | recombinant human PAI-1 (Homo sapiens, UniProt P05121) | 65 |
| CC(C)(C)c1ccc(Sc2cc(-c3ccc(OC(F)(F)F)cc3)ccc2/C=C\C(=O)O)cc1 | recombinant human PAI-1 (Homo sapiens, UniProt P05121) | 18 |
